B1: SFRS1 (parent)
chain: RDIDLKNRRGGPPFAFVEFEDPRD

Variants of: B1
Test: protein stability index of a GFP-peptide fusion (GPS, HEK-293T) (PSI 1-6); higher = more stable;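 note: lentivirally expressed fusions sorted by FACS into six bins by GFP to DsRed ratio, PSI derived from sequencing read proportions per bin multiplied by bin number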
Details: c terminus: a fixed tail appended
# reported protein stability index; entries follow
# answer = number (no unit)

protein stability index for P12S ? 4

protein stability index for P22A ? 3.93

protein stability index for K6A ? 4.18

protein stability index for L5M ? 3.93

protein stability index for I3G ? 4.15

protein stability index for D4V ? 2.85

protein stability index for R1A ? 4.38

protein stability index for A15H ? 4.46

protein stability index for K6R ? 3.47

protein stability index for D4Y ? 2.92

Others:
protein stability index for F19T ? 3.47

protein stability index for L5F ? 3.35

protein stability index for D24L ? 2.31

protein stability index for I3H ? 3.92

protein stability index for R23V ? 3.45
